Just for reference, PubChem BioAssay is where these values come from.

# assay: small-molecule microarray binders of probe aXIP, primary screen, biochemical, NeuroSMM set, 635/667 nm fluorescence (AID 1119);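 note: probe is the protein aXip251-270 applied at 1 µg/mL to compound-printed slides; binding of probe to printed compounds measured as 667 nm fluorescence plus signal to noise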
# conditionLabel: higher = more signal, called active from +8 up or from −8 down
Listing of recorded composite Z-score by entry.
endpointLabel: composite Z-score

compound=CC(C)C(=C=CC[C@@H](O)c1cccc(OCCO)c1)C[C@@H](O)COCc1ccccc1 observedmeasurement=-1.39
compound=CCCCC=C[C@@H](NC(=O)c1ccccc1)c1ccccc1 observedmeasurement=-0.176
compound="CCOC(=O)C1=CCC(c2ccco2)N(S(=O)(=O)c2ccc(C)cc2)C1 (stereo not drawn)" observedmeasurement=0.204
compound=C[C@]1(C(=O)NCCN2CCOCC2)c2ccccc2C(=O)N(Cc2cc(F)cc(C(F)(F)F)c2)[C@H]1c1ccc(CO)cc1 observedmeasurement=0.0652
compound=Cc1ccc([C@H]2C(C(=O)O)=C[C@@H](C(C)(C)C)N2S(=O)(=O)c2ccc(C)cc2)cc1 observedmeasurement=0.0172
compound="O=C1C2C=CC(C(O)c3cc(C(F)(F)F)cc(C(F)(F)F)c3)N(Nc3ccccc3F)C2C(=O)N1c1ccccc1 (stereo not drawn)" observedmeasurement=-0.147
compound="CC1(C)C(=O)C(c2ccccc2)=C2CN3C(=O)N(CCc4ccccc4)C(=O)C3(Cc3ccc(C(F)(F)F)cc3)C=C21 (stereo not drawn)" observedmeasurement=-0.301
compound=CN(C)CCCCNC(=O)[C@H]1C[C@H]2C(=O)N[C@@H](CCCC[N+](C)(C)C)C(=O)N2[C@H]1c1ccc(O)cc1 observedmeasurement=0.261
